Sourced from patent US20240279345A1

Measurement Target: T1, purified recombinant human α5β1 integrin heterodimer, 6×His tagged (rh-α5β1); Acro Biosystems, cat. no. … (human, UniProt P08648 42-995; P05556 21-728)
T1 construct: bought recombinant heterodimer; also called rh-α5β1-6×His tagged protein; His-tagged-α5β1
T1 sequence (P08648 42-995 limits assumed, form in doubt, chain 1 of 2): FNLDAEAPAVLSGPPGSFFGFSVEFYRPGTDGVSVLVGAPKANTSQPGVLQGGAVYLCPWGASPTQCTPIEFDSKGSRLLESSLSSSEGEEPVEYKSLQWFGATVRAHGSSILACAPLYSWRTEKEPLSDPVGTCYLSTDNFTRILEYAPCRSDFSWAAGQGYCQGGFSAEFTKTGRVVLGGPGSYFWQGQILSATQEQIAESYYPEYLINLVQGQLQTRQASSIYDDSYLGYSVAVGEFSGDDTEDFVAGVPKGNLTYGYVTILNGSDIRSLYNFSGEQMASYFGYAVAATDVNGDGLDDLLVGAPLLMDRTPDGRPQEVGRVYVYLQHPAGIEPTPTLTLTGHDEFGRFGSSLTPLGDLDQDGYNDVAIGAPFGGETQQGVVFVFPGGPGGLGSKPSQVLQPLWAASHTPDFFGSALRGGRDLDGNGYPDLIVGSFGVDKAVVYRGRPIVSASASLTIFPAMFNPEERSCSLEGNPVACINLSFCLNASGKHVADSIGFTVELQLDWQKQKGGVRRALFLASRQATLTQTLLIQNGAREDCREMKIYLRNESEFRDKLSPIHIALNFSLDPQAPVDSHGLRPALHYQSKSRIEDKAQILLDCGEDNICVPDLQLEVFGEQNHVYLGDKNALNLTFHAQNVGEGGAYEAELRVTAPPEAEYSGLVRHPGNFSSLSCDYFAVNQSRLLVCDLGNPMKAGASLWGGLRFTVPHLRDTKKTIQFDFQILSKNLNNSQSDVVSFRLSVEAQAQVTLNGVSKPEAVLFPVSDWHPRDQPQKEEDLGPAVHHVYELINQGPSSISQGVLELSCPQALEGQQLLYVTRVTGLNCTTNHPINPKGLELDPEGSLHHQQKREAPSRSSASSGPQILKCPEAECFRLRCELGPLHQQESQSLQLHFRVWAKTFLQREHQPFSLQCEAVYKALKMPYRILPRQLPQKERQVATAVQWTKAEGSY
T1 sequence (P05556 21-728 limits assumed, form in doubt, chain 2 of 2): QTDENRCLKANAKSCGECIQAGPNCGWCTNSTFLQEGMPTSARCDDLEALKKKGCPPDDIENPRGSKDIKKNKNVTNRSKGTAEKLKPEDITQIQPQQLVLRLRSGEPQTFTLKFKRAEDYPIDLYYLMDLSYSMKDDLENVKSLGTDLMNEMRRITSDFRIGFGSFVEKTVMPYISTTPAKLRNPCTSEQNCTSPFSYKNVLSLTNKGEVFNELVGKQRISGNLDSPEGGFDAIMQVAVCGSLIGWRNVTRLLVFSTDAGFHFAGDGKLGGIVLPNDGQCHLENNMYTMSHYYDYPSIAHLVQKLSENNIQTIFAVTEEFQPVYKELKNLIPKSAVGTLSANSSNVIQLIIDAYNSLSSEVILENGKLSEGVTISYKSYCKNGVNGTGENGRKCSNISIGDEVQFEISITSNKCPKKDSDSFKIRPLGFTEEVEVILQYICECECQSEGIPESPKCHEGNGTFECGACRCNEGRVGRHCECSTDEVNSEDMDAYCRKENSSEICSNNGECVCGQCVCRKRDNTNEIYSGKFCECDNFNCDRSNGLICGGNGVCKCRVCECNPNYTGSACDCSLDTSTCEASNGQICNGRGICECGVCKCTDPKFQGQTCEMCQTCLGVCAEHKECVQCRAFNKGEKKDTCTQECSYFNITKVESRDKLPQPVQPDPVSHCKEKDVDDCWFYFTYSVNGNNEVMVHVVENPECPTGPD
Experiment Description: BLI (Octet), supernatant mAb on anti-mouse IgG Fc sensor, 20 nM rh-α5β1
Endpoint Label: log10 koff (log10 of the value in s⁻¹)
Field: value | Transform: log10 | Quantity: koff | Unit: s⁻¹

// below: answered binders
Binder: A2-3B06 (antibody, V domains shown, mouse hybridoma antibody) VH: QVQLKESGPGLVAPSQSLSITCTISGFSLTTYGVHWVRQPPGKGLEWLVVIWSDGSTTYNSALKSRLNITKDNSKSQVFLKMNSLQTDDTAMYYCVRHGGLLRRDAMDYWGQGTSVTVSS VL: QIVLTQSPAIMSASLGERVTMTCTASSSVSSNSFHWYQQKPGSSPKLWLYSTSNLASGVPARFSGSGSGTSYSLTISSMEAEDAATYYCHQYLRSPPTFGGGTKLEIK
Endpoint Label: log10 koff
Value Measured: -2.86
//
Binder: A2-7F01 (antibody, V domains shown, mouse hybridoma antibody) VH: QVQLQQPGAELVKPGASVKLSCKASGYTFTIYWINWVKQRPGQGLEWIGNIYPGSSSTNYNEKFKTKATLTVDTSSSTAYMQLSSLTSDDSAVYYCAITGTGGFAYWGQGTLVTVSA VL: ENVLTQSPAIMSASLGEKVTMSCRASSSVNYMYWYQQKSDASPKLWIYFTSSLAPGVPTRFSGSGSGNSFSLTISSMEGEDAATYYCQQLTGSPFTFGSGTRLEIK
Endpoint Label: log10 koff
Value Measured: -3.50
//
Binder: C-14D12 (antibody, V domains shown, mouse hybridoma antibody; also called C-14D12 (hybridoma)) VH: QVQLKESGPDLVAPSQSLSITCTVSGFSLTDYGVHWVRQPPGKGLEWLVVIWSDGSTTYNSALKSRLSITKDTSKRQVFLKMNSLQTDDTAMYYCARHAPSFIRYGSRYDALDYWGQGTSVTVSS VL: QIVLTQSPAIMSASLGERVTLTCTASSSVTSSFLHWYQQKPGSSPKLWIYSTSNLASGVPARFSGSGSGTSYSLTISSMEAEDAATYYCHQYHRSPPTFGGGTKLEIK
Endpoint Label: log10 koff
Value Measured: -4.00
//
Binder: A-4G02 (antibody, V domains shown, mouse hybridoma antibody) VH: QVQLKESGPGLVAPSQSLSITCTISGFSLTSYGVHWVRQPPGKGLEWLVVIWSDGSTTYNSTLKSRLSISKDNSKSQVFFKMNSLQTDDTAMYYCARHYDYDGDWFAYWGQGTLVTVSA VL: QIVLTQSPAIMSASLGERVTMTCTASSRVSSNSLHWYQQKPGSSPKLWIYSTSNLASGVPARFSGSGSGTSYSLTISSMEAEDAATYYCHQYLRSPPTFGGGTKLEIK
Endpoint Label: log10 koff
Value Measured: -3.40

Enquiry: For A-15H11 (antibody, V domains shown, mouse hybridoma antibody) VH: QVQLQQPGAELVKPGASVKLSCKASGYTFTIYWINWVKQRPGQGLEWIGKIYPGSISTDYNEKFKSKATLTVDTSSSTAYMQLSSLTSDDSAVYYCAITGTGGLAYWGQGTLVTVSA VL: ENVLTQSPAIMSASLGEKVTMTCRASSSVNYMYWYQQKSDASPKLWIYFTSSLAPGVPGRFSGSGSGNSYSLTISTMEGEDAATYYCQQFTTSPFTFGSGTKLEIK , write its log10 koff.
Return: -3.71
